Test system: K562/A02
Test: Reversal of ABCB1 mediated adriamycin resistance in human K562/A02 overexpressing ABCB1 assessed as decrease in survival rate at 1.25 to 5 uM preincubated for 1 hrs followed by adriamycin addition and measured after 72 hrs by MTS assay
Format: functional, cell-based
Settings: dose 1.25-5 µM, time 73.0 hrs
Calls of active or inactive are those of the source. The calls are words filed in the database; no cut-off is given here.

{"Input Smiles": "COc1cc2c(cc1OC)CN(Cc1c(-c3ccc(NC(=O)COc4ccccc4C)cc3)nc3ccccn13)CC2", "Activity": "Active"}
{"Input Smiles": "O=C(CCCN1CCN(c2ccccc2)CC1)Nc1ccc(-c2nc3ccccn3c2CN2CCN(c3ccccc3)CC2)cc1", "Activity": "Active"}
{"Input Smiles": "COc1cc(/C=C/C(=O)Nc2ccc(-c3nc4ccccn4c3CN3CCN(c4ccccc4)CC3)cc2)cc(OC)c1OC", "Activity": "Active"}
{"Input Smiles": "COc1cc2c(cc1OC)CN(Cc1c(-c3ccc(NC(=O)COc4ccc(C)cc4)cc3)nc3ccccn13)CC2", "Activity": "Active"}
